Assay: Study B: plasma pharmacokinetics after single-dose i.v. telavancin 10 mg/kg in subjects with varying renal function
Settings: both, human, in vivo, iv, 10 mg/kg
RESULT TYPE: half-life
Write the numeric value and follow it with the unit.

Could you please provide reported half-life for "CCCCCCCCCCNCCN[C@@]1(C)C[C@H](O[C@H]2[C@H](Oc3c4cc5cc3Oc3ccc(cc3Cl)[C@@H](O)[C@@H](NC(=O)[C@@H](CC(C)C)NC)C(=O)N[C@@H](CC(N)=O)C(=O)N[C@H]5C(=O)N[C@H]3C(=O)N[C@H](C(=O)N[C@H](C(=O)O)c5cc(O)c(CNCP(=O)(O)O)c(O)c5-c5cc3ccc5O)[C@H](O)c3ccc(c(Cl)c3)O4)O[C@H](CO)[C@@H](O)[C@@H]2O)O[C@@H](C)[C@H]1O" ? Thanks! 6.5 h
